# assayed-target: HLA-A*02:01 (Homo sapiens, UniProt P04439, D140Y/D185E/D98H/E176V/E277Q/G131W/G231S/I119V/I121R/I166T/I218V/L300P/L318F/N151K/N90K/P208A/P217A/Q86G/Q94H/R138H/R169H/T345S)
# assay-remarks: MHC binding assay (UV-ligand exchange, beta2m ELISA, peptide exchange yield)
# condition-details: MHC class I binding score; binding to HLA-A*02:01 ranged by peptide exchange yield (UV-ligand exchange, β2m ELISA)
endpoint-name: Peptide exchange

The examples below pair each entry with its known result.
substance	observed
14 (FLDKPEDVLL; listed as Homo sapiens) [compound 14]	″++″ (≥20% = ++)
112 (KLGQVLIYL; listed as Homo sapiens) [compound 112]	″++″ (≥20% = ++)
92 (WIDDTSAFV; listed as Homo sapiens) [compound 92]	″+++″ (≥50 = +++)
127 (RLAELTVDEFLA; listed as Homo sapiens) [compound 127]	″+++″ (≥50 = +++)
108 (SLAELVPGVGGI; listed as Homo sapiens) [compound 108]	″+++″ (≥50 = +++)

Form field: reported Peptide exchange of 122 (SLMGMVLKL; listed as Homo sapiens) [compound 122]
″+++″ (≥50 = +++)

Same again, this time with 130 (GLGGSQLIDTHL; listed as Homo sapiens) [compound 130]
″++″ (≥20% = ++)

Same again, this time with 162 (KLMDYIDEL; listed as Homo sapiens) [compound 162]
″+++″ (≥50 = +++)

Same again, this time with 90 (GLLKPGLNVVL; listed as Homo sapiens) [compound 90]
″+++″ (≥50 = +++)

###

# assayed-target: HLA-A*02:01 (Homo sapiens, UniProt P04439, D140Y/D185E/D98H/E176V/E277Q/G131W/G231S/I119V/I121R/I166T/I218V/L300P/L318F/N151K/N90K/P208A/P217A/Q86G/Q94H/R138H/R169H/T345S)
# assay-remarks: MHC binding assay (UV-ligand exchange, beta2m ELISA, peptide exchange yield)
# condition-details: MHC class I binding score; binding to HLA-A*02:01 ranged by peptide exchange yield (UV-ligand exchange, β2m ELISA)

substance	Peptide exchange
11 (YLFEKTFNM; listed as Homo sapiens) [compound 11]	″+++″ (≥50 = +++)
163 (RLLHEVQEL; listed as Homo sapiens) [compound 163]	″+++″ (≥50 = +++)
